# subjectOfTest: ~100 representative kinases (Homo sapiens, UniProt O14733)
# Construct: Recombinant protein kinase domains with a concentration of 2 μM
# Sequence (O14733 1-419): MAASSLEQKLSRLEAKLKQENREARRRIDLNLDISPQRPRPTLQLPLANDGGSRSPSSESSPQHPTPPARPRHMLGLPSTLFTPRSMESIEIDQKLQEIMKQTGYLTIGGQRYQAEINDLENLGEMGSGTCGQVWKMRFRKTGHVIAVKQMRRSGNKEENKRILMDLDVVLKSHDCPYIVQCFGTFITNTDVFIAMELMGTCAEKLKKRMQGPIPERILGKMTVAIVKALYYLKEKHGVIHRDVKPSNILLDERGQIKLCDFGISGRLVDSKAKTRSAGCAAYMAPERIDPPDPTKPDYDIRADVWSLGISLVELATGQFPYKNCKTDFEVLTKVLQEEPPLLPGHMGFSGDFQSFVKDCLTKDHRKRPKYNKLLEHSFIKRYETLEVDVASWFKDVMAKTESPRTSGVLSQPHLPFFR
# protocolDetails: DSF 100 kinase selectivity screen;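 note: compound tested at 20 µM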
# Assay type: binding
# protocolConditions: protein MAP2K7; average of three replicates
metric: dTm (K)

The following compounds have reported results that may help.
INSERT INTO measurements (compound, uom, reportedresult) VALUES
  ('CC(C)(C)c1cccc(NC(=O)C2(C(=O)Nc3cccc(-c4c[nH]c5ncnc(N6CCOCC6)c45)c3)CC2)c1', 'K', 3.77),
  ('Cc1ccc(C(=O)Nc2ccc(CN3CCN(C)CC3)c(C(F)(F)F)c2)cc1C#Cc1c[nH]c2ncnc(N3CCOCC3)c12', 'K', 4.67),
  ('Cn1cc(-c2c[nH]c3ncnc(N4CCOCC4)c23)cc1C#N', 'K', 0.37),
  ('CNC(=O)c1cc(Oc2ccc(NC(=O)Nc3cc(C(C)(C)C)nn3-c3ccc4ncccc4c3)c(F)c2)ccn1 [Rebastinib, reference compound]', 'K', 2.63);

a = O=C(Nc1ccc(Cl)cc1)C1(C(=O)Nc2cccc(-c3c[nH]c4ncnc(N5CCOCC5)c34)c2)CC1
b = CC(=O)N1CCN(c2nc(Cl)nc3[nH]cc(-c4cccc(NC(=O)Nc5cc(C(C)(C)C)nn5-c5ccc(C)cc5)c4)c23)CC1
c = CCNc1nc(Nc2cc(F)c(C(=O)N3CCOCC3)cc2OC)ncc1C(F)(F)F
Given 3 compounds, produce a descending ranking by dTm. API: response body holds the labels in the requested order.
a, b, c
(a: 4.62 K, b: 2.84 K, c: -0.22 K)

---

# subjectOfTest: ~100 representative kinases (Homo sapiens)
# Construct: Recombinant protein kinase domains with a concentration of 2 μM
# Sequence (P55201 1-1214): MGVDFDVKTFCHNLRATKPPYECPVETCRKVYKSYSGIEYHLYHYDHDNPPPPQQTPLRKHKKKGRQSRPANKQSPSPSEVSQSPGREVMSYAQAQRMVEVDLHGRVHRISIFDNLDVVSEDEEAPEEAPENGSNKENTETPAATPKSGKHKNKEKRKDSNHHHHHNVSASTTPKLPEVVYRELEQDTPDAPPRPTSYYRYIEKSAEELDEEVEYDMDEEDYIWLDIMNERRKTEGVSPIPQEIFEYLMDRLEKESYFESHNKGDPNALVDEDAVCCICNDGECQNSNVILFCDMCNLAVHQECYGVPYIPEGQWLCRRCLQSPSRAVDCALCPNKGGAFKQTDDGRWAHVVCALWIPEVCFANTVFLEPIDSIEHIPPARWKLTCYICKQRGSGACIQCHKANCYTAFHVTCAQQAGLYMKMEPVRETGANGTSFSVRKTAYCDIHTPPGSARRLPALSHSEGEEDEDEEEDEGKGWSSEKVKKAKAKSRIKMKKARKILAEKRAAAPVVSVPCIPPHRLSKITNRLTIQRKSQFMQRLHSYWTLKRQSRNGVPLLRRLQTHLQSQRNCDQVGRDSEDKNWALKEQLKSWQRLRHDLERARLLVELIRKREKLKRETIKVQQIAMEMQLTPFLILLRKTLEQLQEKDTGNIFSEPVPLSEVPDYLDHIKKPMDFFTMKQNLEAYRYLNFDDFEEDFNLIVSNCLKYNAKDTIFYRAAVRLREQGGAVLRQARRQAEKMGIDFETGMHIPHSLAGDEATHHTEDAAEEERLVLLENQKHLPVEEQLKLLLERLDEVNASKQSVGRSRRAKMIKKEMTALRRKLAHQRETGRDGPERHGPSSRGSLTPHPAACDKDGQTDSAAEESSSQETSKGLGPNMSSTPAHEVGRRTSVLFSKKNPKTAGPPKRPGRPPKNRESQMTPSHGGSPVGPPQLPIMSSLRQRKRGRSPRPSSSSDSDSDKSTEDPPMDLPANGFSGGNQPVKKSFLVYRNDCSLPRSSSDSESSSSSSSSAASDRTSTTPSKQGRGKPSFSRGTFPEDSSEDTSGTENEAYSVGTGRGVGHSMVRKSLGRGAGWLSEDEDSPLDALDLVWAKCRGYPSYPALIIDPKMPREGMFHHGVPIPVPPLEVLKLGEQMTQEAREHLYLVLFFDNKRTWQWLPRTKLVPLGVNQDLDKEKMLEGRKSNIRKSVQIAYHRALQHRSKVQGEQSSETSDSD
# protocolDetails: DSF 100 kinase selectivity screen;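 note: compound tested at 20 µM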
# Format: binding
# protocolConditions: Protein BRPF1; average of three replicates
metric: dTm (K)

P = O=C(Nc1ccc(Cl)cc1)C1(C(=O)Nc2cccc(-c3c[nH]c4ncnc(N5CCOCC5)c34)c2)CC1
Q = O=C(Nc1cc(F)cc(Br)c1)C1(C(=O)Nc2cccc(-c3c[nH]c4ncnc(N5CCOCC5)c34)c2)CC1
Between the entries labelled P and Q , which has a larger dTm value on record? # respond with the chosen item's label
Q

P = Cc1cc(NC(=O)C2(C(=O)Nc3ccc(F)cc3)CC2)cc(-c2c[nH]c3ncnc(N4CCOCC4)c23)c1
Q = O=C(Nc1ccccc1)C1(C(=O)Nc2cccc(-c3c[nH]c4ncnc(N5CCOCC5)c34)c2)CC1
Between the entries labelled P and Q , which has a larger dTm value on record? # respond with the chosen item's label
P

I = Cc1cc(NC(=O)C2(C(=O)Nc3cccc(-c4c[nH]c5ncnc(N6CCOCC6)c45)c3)CC2)ccc1F
II = O=C(Nc1cccc(-c2c[nH]c3ncnc(N4CCOCC4)c23)c1)c1cccn(-c2ccc(F)cc2)c1=O
Between the entries labelled I and II , which has a larger dTm value on record? # respond with the chosen item's label
I

---

# subjectOfTest: ~100 representative kinases (Homo sapiens, UniProt Q9UEW8)
# Construct: Recombinant protein kinase domains with a concentration of 2 μM
# protocolDetails: DSF 100 kinase selectivity screen;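 note: compound tested at 20 µM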
# Type: binding
# protocolConditions: Protein STK39; DSF; average of three replicates
metric: dTm (K)

The following compounds have reported results that may help.
INSERT INTO results (compound, metric, reportedresult) VALUES
  ('CCNc1nc(Nc2cc(F)c(C(=O)N3CCOCC3)cc2OC)ncc1C(F)(F)F', 'dTm', 0.28),
  ('Cn1cc(-c2c[nH]c3ncnc(N4CCOCC4)c23)cc1C#N', 'dTm', -0.25),
  ('O=C(Nc1ccc(Cl)cc1)C1(C(=O)Nc2cccc(-c3c[nH]c4ncnc(N5CCOCC5)c34)c2)CC1', 'dTm', 2.32),
  ('COc1cc(C(=O)N2CCOCC2)c(F)cc1Nc1nc(N(C)C)c2c(Cl)c[nH]c2n1', 'dTm', 2.35),
  ('O=C(Nc1ccccc1)C1(C(=O)Nc2cccc(-c3c[nH]c4ncnc(N5CCOCC5)c34)c2)CC1', 'dTm', 2.09);

1 = CCc1ccc(NC(=O)C2(C(=O)Nc3cccc(-c4c[nH]c5ncnc(N6CCOCC6)c45)c3)CC2)cc1
2 = O=C(Nc1ccc(F)cc1)C1(C(=O)Nc2cccc(-c3c[nH]c4ncnc(N5CCOCC5)c34)c2)CC1
Between the entries labelled 1 and 2 , which has a larger dTm value on record? # respond with the chosen item's label
2
(2: 1.95 K, 1: 1.18 K)

1 = Cc1ccc(-n2nc(C(C)(C)C)cc2NC(=O)Nc2cccc(-c3c[nH]c4nc(Cl)nc(N5CCOCC5)c34)c2)cc1
2 = O=C(Nc1cc(F)cc(Br)c1)C1(C(=O)Nc2cccc(-c3c[nH]c4ncnc(N5CCOCC5)c34)c2)CC1
Between the entries labelled 1 and 2 , which has a larger dTm value on record? # respond with the chosen item's label
1

a = O=C(Nc1cccc(-c2c[nH]c3ncnc(N4CCOCC4)c23)c1)C1(C(=O)Nc2ccc(F)c(Br)c2)CC1
b = O=C(Nc1cccc(-c2c[nH]c3ncnc(N4CCOCC4)c23)c1)C1(C(=O)Nc2ccc(F)c(Cl)c2)CC1
c = O=C(Nc1cccc(-c2c[nH]c3ncnc(N4CCOCC4)c23)c1)C1(C(=O)Nc2ccc(F)c(Br)c2F)CC1
d = O=C(Nc1cccc(-c2c[nH]c3ncnc(N4CCOCC4)c23)c1)C1(C(=O)Nc2cc(Br)c(F)cc2F)CC1
e = CC(C)(C)c1cccc(NC(=O)C2(C(=O)Nc3cccc(-c4c[nH]c5ncnc(N6CCOCC6)c45)c3)CC2)c1
Order the entries by their reported dTm, beginning at the minimum. API: response body holds the labels in the requested order.
d, c, a, b, e

P = CC(=O)N1CCN(c2nc(Cl)nc3[nH]cc(-c4cccc(NC(=O)Nc5cc(C(C)(C)C)nn5-c5ccc(C)cc5)c4)c23)CC1
Q = Cc1cc(F)ccc1NC(=O)C1(C(=O)Nc2cccc(-c3c[nH]c4ncnc(N5CCOCC5)c34)c2)CC1
From the items above, decide which of P and Q has the lower dTm reading. # respond with the chosen item's label
Q

All figures here come from paper PMC12136037.
